test system: Saccharomyces cerevisiae; experiment: protein stability index of tFT-peptide fusion (C-terminal peptide) (PSI (0-1 scale)); higher = more stable (slower turnover); conditions: genetic background: wild type; temperature: 30 C;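 also: PSI is a weighted mean of sequencing reads over stability bins, variants kept only with over 10 reads, mCherry proximal and sfGFP distal, peptide attached via GGGS linker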
Categories are defined by ranges of protein stability index, namely category 1 (below 0.2), category 2 (0.2 to below 0.4), category 3 (0.4 or more)

>  <sequence-input>
PPLPPPPPHPPP

>  <qualitative-label>
category 3

$$$$
>  <sequence-input>
VWFGGFVCSVLG

>  <qualitative-label>
category 2

$$$$
>  <sequence-input>
LLHQSVHSHIPP

>  <qualitative-label>
category 3

$$$$
>  <sequence-input>
SLFSPPVLATPS

>  <qualitative-label>
category 3

$$$$
>  <sequence-input>
YVSIWSPILWLA

>  <qualitative-label>
category 1

$$$$
>  <sequence-input>
GGVFYVFFVFVG

>  <qualitative-label>
category 1

$$$$
>  <sequence-input>
VIRFNSAPRFLV

>  <qualitative-label>
category 1

$$$$
>  <sequence-input>
GRRPVVDFLPCL

>  <qualitative-label>
category 3

$$$$
>  <sequence-input>
FFICCPLLVVCS

>  <qualitative-label>
category 1

$$$$
>  <sequence-input>
WLGLFAFRRCLV

>  <qualitative-label>
category 2

$$$$
>  <sequence-input>
ICQLLKFPLFWC

>  <qualitative-label>
category 2

$$$$
>  <sequence-input>
DCLSFVLFLFLC

>  <qualitative-label>
category 1

$$$$
>  <sequence-input>
KLLGVLFVLFPG

>  <qualitative-label>
category 2

$$$$
>  <sequence-input>
TGYRYVGRFFVV

>  <qualitative-label>
category 1

$$$$
>  <sequence-input>
PVPERTSATEPP

>  <qualitative-label>
category 3

$$$$
>  <sequence-input>
CLASCRHRTYLC

>  <qualitative-label>
category 2

$$$$
>  <sequence-input>
VFSLAFYLVLFF

>  <qualitative-label>
category 2

$$$$

---

tested on: Saccharomyces cerevisiae; assay: protein stability index of tFT-peptide fusion (C-terminal peptide) (PSI (0-1 scale)); higher = more stable (slower turnover); settings: genetic background: wild type; temperature: 30 C
experimental-readout: protein stability index

>  <sequence-input>
SPSGLPLHFSFL

>  <experimental-readout>
protein stability index

>  <measurement>
0.704

$$$$
>  <sequence-input>
RAFASLALAILP

>  <experimental-readout>
protein stability index

>  <measurement>
0.623

$$$$
>  <sequence-input>
LCGFLPSFHLLY

>  <experimental-readout>
protein stability index

>  <measurement>
0.679

$$$$
>  <sequence-input>
RRGRNGGKADLR

>  <experimental-readout>
protein stability index

>  <measurement>
0.657

$$$$
>  <sequence-input>
HRGAVRGGSEIW

>  <experimental-readout>
protein stability index

>  <measurement>
0.729

$$$$
>  <sequence-input>
KEKKKTKHNKIG

>  <experimental-readout>
protein stability index

>  <measurement>
0.216

$$$$
>  <sequence-input>
FGGGWGGGVVLV

>  <experimental-readout>
protein stability index

>  <measurement>
0.691

$$$$
>  <sequence-input>
GRPRPRSGWILL

>  <experimental-readout>
protein stability index

>  <measurement>
0.672

$$$$
>  <sequence-input>
ILPPPYVPARLS

>  <experimental-readout>
protein stability index

>  <measurement>
0.577

$$$$
>  <sequence-input>
SPRGLQSAPSGI

>  <experimental-readout>
protein stability index

>  <measurement>
0.74

$$$$
>  <sequence-input>
VVAIGRVWGERA

>  <experimental-readout>
protein stability index

>  <measurement>
0.68

$$$$
>  <sequence-input>
FPFFVFRVWFGA

>  <experimental-readout>
protein stability index

>  <measurement>
0.464

$$$$
